- tgt: 2-amino-4-hydroxy-6-hydroxymethyldihydropteridine pyrophosphokinase (Escherichia coli (strain K12))
- Sequence (P26281 whole entry): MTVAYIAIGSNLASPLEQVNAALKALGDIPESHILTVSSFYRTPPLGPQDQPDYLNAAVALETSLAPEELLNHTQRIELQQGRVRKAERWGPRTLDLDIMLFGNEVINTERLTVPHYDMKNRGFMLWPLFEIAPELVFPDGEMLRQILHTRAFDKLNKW
- procedureText: Binding affinity to biotinylated Escherichia coli HPPK expressed in Escherichia coli BL21 (DE3) in presence of 1 mM ATP by SPR assay
parameter: Kd (µM)

Look over these answered cases.
Item under review: Nc1nc2[nH]c(SCc3ccccc3[N+](=O)[O-])nc2c(=O)[nH]1 . Reported Kd?
5.7

What value of Kd has been reported for the following compound? Cc1cccc(CSc2nc3c(=O)[nH]c(N)nc3[nH]2)c1F
10.7

Item under review: CN(C)C(=O)CSc1nc2c(=O)[nH]c(N)nc2[nH]1 . Reported Kd?
53

Kd for Nc1nc2[nH]c(S)nc2c(=O)[nH]1 ?
160

Fill in the blank: the reported Kd of Nc1nc2[nH]c(SCC(O)CO)nc2c(=O)[nH]1 (configuration not stated) is ____.
82

A: Nc1nc2[nH]c(SCCC3OCCCO3)nc2c(=O)[nH]1
B: Nc1nc2[nH]c(SCc3cccc(F)c3)nc2c(=O)[nH]1
C: COc1ccc(CSc2nc3c(=O)[nH]c(N)nc3[nH]2)c(F)c1
D: Nc1nc2[nH]c(SCc3cccc(OC(F)(F)F)c3)nc2c(=O)[nH]1
E: Cc1cccc(CSc2nc3c(=O)[nH]c(N)nc3[nH]2)c1
Given 5 compounds, produce a descending ranking by Kd. Present the labels in the sequence the task asks for.
A, D, B, E, C
(A: 23.3 µM, D: 5.7 µM, B: 2.6 µM, E: 1.7 µM, C: 0.95 µM)

I: N#Cc1ccccc1CSc1nc2c(=O)[nH]c(N)nc2[nH]1
II: Cc1ccccc1CSc1nc2c(=O)[nH]c(N)nc2[nH]1
Which of the two gives a bigger number for Kd: I or II ? Mark your answer with the label of the selected entry.
I

a: Nc1nc2[nH]c(SCc3cccc([N+](=O)[O-])c3)nc2c(=O)[nH]1
b: Nc1nc2[nH]c(SCc3ccc(F)cc3F)nc2c(=O)[nH]1
Of a and b , which one carries the higher reported Kd? Record your answer as the label of the chosen record.
a
(a: 5.8 µM, b: 1.4 µM)

====

- tgt: 2-amino-4-hydroxy-6-hydroxymethyldihydropteridin e pyrophosphokinase (Staphylococcus aureus)
- Sequence (X5EH84 whole entry): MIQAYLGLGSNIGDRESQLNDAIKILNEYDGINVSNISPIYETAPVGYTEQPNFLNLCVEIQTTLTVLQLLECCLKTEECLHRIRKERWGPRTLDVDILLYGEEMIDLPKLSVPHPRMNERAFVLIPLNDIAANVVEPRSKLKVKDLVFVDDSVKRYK
pKd: −log10 of the molar value.
parameter: pKd

Some entries whose results are on file:
pKd for Nc1nc2[nH]c(SCCC3OCCCO3)nc2c(=O)[nH]1 ?
5.10

Could you tell me which pKd is on file for Nc1nc2[nH]c(SCc3cccc(Br)c3)nc2c(=O)[nH]1 ?
5.51

For the molecule shown here, Nc1nc2[nH]c(SCc3ccc(OC(F)(F)F)cc3)nc2c(=O)[nH]1 , give the reported pKd.
5.68

Find the recorded pKd belonging to Nc1nc2[nH]c(SCc3cccc([N+](=O)[O-])c3)nc2c(=O)[nH]1 and report it.
5.85

// returns reported pKd for input COc1ccc(CSc2nc3c(=O)[nH]c(N)nc3[nH]2)c(F)c1
6.52

a: Cc1ccc(F)c(CSc2nc3c(=O)[nH]c(N)nc3[nH]2)c1
b: Cc1ccccc1CSc1nc2c(=O)[nH]c(N)nc2[nH]1
c: CCN(C)C(=O)C(C)Sc1nc2c(=O)[nH]c(N)nc2[nH]1 (stereo not given)
d: Nc1nc2[nH]c(SCc3c(F)cccc3F)nc2c(=O)[nH]1
Arrange these molecules by their pKd, starting with the largest number. # respond with the labels, arranged in the requested order
d, a, b, c
(d: 6.92, a: 6.68, b: 6.33, c: 4.34)

====

- tgt: 2-amino-4-hydroxy-6-hydroxymethyldihydropteridine pyrophosphokinase (Escherichia coli (strain K12))
- Sequence (P26281 whole entry): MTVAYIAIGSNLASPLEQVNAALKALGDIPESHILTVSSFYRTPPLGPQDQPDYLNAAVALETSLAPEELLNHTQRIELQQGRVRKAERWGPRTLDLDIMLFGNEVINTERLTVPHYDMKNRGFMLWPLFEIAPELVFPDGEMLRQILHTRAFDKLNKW
- procedureText: Binding affinity to biotinylated Escherichia coli HPPK expressed in Escherichia coli BL21 (DE3) in presence of 1 mM ATP by SPR assay
pKd: −log10 of the molar value.
parameter: pKd

Here is how some compounds turned out for pKd.
Item under review: Nc1nc2[nH]c(SCc3cccc(Br)c3)nc2c(=O)[nH]1 . Reported pKd?
5.15

What does the data say about its pKd? Entry: N#Cc1cc(F)ccc1CSc1nc2c(=O)[nH]c(N)nc2[nH]1
4.42

Please give the measured pKd for this compound: N#Cc1ccc(CSc2nc3c(=O)[nH]c(N)nc3[nH]2)c(F)c1
5.57

1: N#Cc1cc(CSc2nc3c(=O)[nH]c(N)nc3[nH]2)ccc1F
2: Nc1nc2[nH]c(SCc3ccc(Br)cc3)nc2c(=O)[nH]1
Identify the item whose pKd is the smaller number: 1 or 2 Output the label that corresponds to your choice.
1

====

- tgt: 2-amino-4-hydroxy-6-hydroxymethyldihydropteridine pyrophosphokinase (Escherichia coli (strain K12), UniProt P26281)
- Sequence (P26281 whole entry): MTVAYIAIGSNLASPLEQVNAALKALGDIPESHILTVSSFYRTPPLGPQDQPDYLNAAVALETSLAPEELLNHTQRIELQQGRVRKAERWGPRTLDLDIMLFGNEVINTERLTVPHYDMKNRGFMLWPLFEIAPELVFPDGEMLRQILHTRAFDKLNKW
- procedureText: Binding affinity to biotinylated Escherichia coli HPPK expressed in Escherichia coli BL21 (DE3) in presence of 1 mM ATP by SPR assay
parameter: Kd (µM)

# Kd lookup, item COc1cccc(CSc2nc3c(=O)[nH]c(N)nc3[nH]2)c1
1.8

Quick one: Kd of Nc1nc2[nH]c(SCC(=O)c3ccc(Br)cc3)nc2c(=O)[nH]1 ?
0.7

Give its Kd value. Item: COc1ccc(CSc2nc3c(=O)[nH]c(N)nc3[nH]2)cc1
2.2

====

- tgt: 2-amino-4-hydroxy-6-hydroxymethyldihydropteridin e pyrophosphokinase (Staphylococcus aureus, UniProt X5EH84)
- Sequence (X5EH84 whole entry): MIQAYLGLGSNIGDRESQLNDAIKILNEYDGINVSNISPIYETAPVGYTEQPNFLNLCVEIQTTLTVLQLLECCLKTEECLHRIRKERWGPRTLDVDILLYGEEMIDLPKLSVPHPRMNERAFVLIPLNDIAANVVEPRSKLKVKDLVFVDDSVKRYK
parameter: Kd (µM)

A: COc1ccc(CSc2nc3c(=O)[nH]c(N)nc3[nH]2)cc1
B: Nc1nc(O)c2[nH]c(SCc3ccc(Cl)cc3)nc2n1
C: Nc1nc2[nH]c(SCCN3CCCC3=O)nc2c(=O)[nH]1
D: Nc1nc2[nH]c(SCC(O)CO)nc2c(=O)[nH]1 (stereo unspecified)
E: Cc1cc(F)ccc1CSc1nc2c(=O)[nH]c(N)nc2[nH]1
Rank entries according to their Kd, from the largest number down. Quick reminder: the answer is the labels in the order asked.
D, C, E, B, A

a: COc1cccc(CSc2nc3c(=O)[nH]c(N)nc3[nH]2)c1
b: Nc1nc2[nH]c(SCc3cc(C(F)(F)F)cc(C(F)(F)F)c3)nc2c(=O)[nH]1
c: Nc1nc2[nH]c(SCCO)nc2c(=O)[nH]1
Falling order of Kd, please. Answer by naming the labels in the order asked.
c, b, a
(c: 7.6 µM, b: 1.2 µM, a: 0.65 µM)

1: CC(C)CNC(=O)CSc1nc2c(=O)[nH]c(N)nc2[nH]1
2: Nc1nc2[nH]c(SCc3ccc(Br)cc3)nc2c(=O)[nH]1
3: CN(C)C(=O)CSc1nc2c(=O)[nH]c(N)nc2[nH]1
4: Nc1nc2[nH]c(SCc3cccc(F)c3)nc2c(=O)[nH]1
5: Nc1nc2[nH]c(SCc3cccc(Cl)c3)nc2c(=O)[nH]1
Could you please sort these 5 entries by Kd from high to low? Answer by writing out the labels in the requested order.
1, 3, 2, 5, 4

P: CCN(CC)C(=O)CSc1nc2c(=O)[nH]c(N)nc2[nH]1
Q: Cc1cc(C)cc(CSc2nc3c(=O)[nH]c(N)nc3[nH]2)c1
Parameter metric = Kd. Return the lower-valued option from P and Q . Kindly give the label for the entry you pick.
Q

Where do the numbers come from? From ChEMBL document CHEMBL3817742.
